These entries and their values trace back to patent US20250368649A1.

target: KRas G12D (Homo sapiens, UniProt P01116, G12D); assay: biochemical; details: Binding to KRas (IC50 nM) G12D, TR-FRET displacement, KRas G12D
Sequence (P01116 1-169 isoform P01116-2 G12D): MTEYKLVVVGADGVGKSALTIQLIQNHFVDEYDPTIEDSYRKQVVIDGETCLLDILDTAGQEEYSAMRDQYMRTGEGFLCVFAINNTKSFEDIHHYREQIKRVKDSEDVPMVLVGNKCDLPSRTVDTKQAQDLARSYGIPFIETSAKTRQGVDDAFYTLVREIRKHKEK
observable: IC50

As a guide, the following entries are already answered.
CCc1c(F)ccc2cc(O)cc(N3CCc4c(nc(OC[C@@]56CCCN5C[C@H](F)C6)nc4N4CCCn5nc(C(=O)N(C)C)c(COC)c5C4)C3)c12 ... < 2 nM
CCc1c(F)ccc2cc(O)cc(N3CCc4c(nc(OC[C@@]56CCCN5C[C@H](F)C6)nc4N4CCCn5nc(CNC(C)=O)cc5C4)C3)c12 ... < 2 nM

Note: attention shifts to another entry.
For KRas G12D (Homo sapiens, UniProt P01116, G12D), give the measured IC50 of the entry CCc1c(F)ccc2cc(O)cc(N3CCc4c(nc(OC[C@@]56CCCN5C[C@H](F)C6)nc4N4CCCn5nc(C(=O)N(C)C)c(OC)c5C4)C3)c12 < 2 nM

###

target: KRas G12D (Homo sapiens, UniProt P01116, G12D); assay: biochemical; conditions: Binding to KRas (IC50 nM) G12D, TR-FRET displacement, KRas G12D
observable: IC50 (nM)
A number alone suffices; assume nM.

CCc1c(F)ccc2cc(O)cc(N3CCc4c(nc(OC[C@@]56CCCN5C[C@H](F)C6)nc4N4CCCn5nc(C(=O)N6CCC7CC6CN7)cc5C4)C3)c12 (stereo partly shown) ... 2
C[C@@]1(O)COCCN(c2nc(OC[C@@]34CCCN3C[C@H](F)C4)nc3c2CCN(c2ccc(F)c4sc(N)c(C#N)c24)C3)C1 ... 57
CCc1c(F)ccc2cc(O)cc(N3CCc4c(nc(N5CC(N)C5)nc4N4CCC[C@@](C)(O)C4)C3)c12 ... 755
CCc1cccc2cccc(N3CCc4c(nc(OCC5(CN(C)C)CC5)nc4NC4CN(C(=O)NC)C4)C3)c12 ... 4290
CCc1c(F)ccc2cc(O)cc(N3CCc4c(nc(OC[C@@]56CCCN5C[C@H](F)C6)nc4N4CCCn5nc(CN(C)S(=O)(=O)NC)cc5C4)C3)c12 ... 7

// moving on: another record for IC50
Check KRas G12D (Homo sapiens, UniProt P01116, G12D) data and give IC50 for CCc1cccc2cccc(N3CCc4c(nc(OCC5(CN(C)C)CC5)nc4N4CCCC(c5ccn(C)n5)C4)C3)c12 (stereo not shown) . 7420

###

tested on: A549 cells; experiment: Inhibition of KRas-mediated phosphorylation of ERK (Cisbio HTRF pERK), A549 cells; format: cell-based; settings: Homo sapiens, A549, 3 h, 3 hr compound incubation, Cisbio pERK HTRF
observable: log10 of IC50 (log10 of the value in nM)
Please interpret these as log10 of IC50 where IC50 is in nM.

# count of solved cases: 4
CCc1c(F)ccc2cc(O)cc(N3CCc4c(nc(OCC5(CN(C)C)CC5)nc4N4CCCC(c5cn(C)nn5)C4)C3)c12 (stereo not shown) [Example 598] ... 3.19
CCc1c(F)ccc2cc(O)cc(N3CCc4c(nc(OC[C@@]56CCCN5C[C@H](F)C6)nc4N4CCCCn5nc(C(=O)NC(C)C)c(Cl)c5C4)C3)c12 [Example 506] ... 1.23
CCc1c(F)ccc2cc(O)cc(N3CCc4c(nc(OC[C@@]56CCCN5C[C@H](F)C6)nc4N4CCCn5nc(C(=O)NC6CCC6)cc5C4)C3)c12 [Example 378] ... 1.59
O=C1NC(=O)[C@]2(CCCN(c3nc(OC[C@@]45CCCN4C[C@H](F)C5)nc4c3CCN(c3cc(O)cc5ccc(F)c(Cl)c35)C4)C2)N1 [Example 587] ... 1.52

Enter recorded log10 of IC50 with A549 cells for CCNc1cc2n(n1)CCCN(c1nc(OC[C@@]34CCCN3C[C@H](F)C4)nc3c1CCN(c1cc(O)cc4ccc(F)c(CC)c14)C3)C2 [Example 412] here. 2.33

Report measured log10 of IC50 on A549 cells; entry: CCc1c(F)ccc2cc(O)cc(N3CCc4c(nc(OC[C@@]56CCCN5C[C@H](F)C6)nc4N4CCCn5nc(NC(C)C)cc5C4)C3)c12 [Example 407] 2.09

###

molecular target: KRas G12D (Homo sapiens, UniProt P01116, G12D); assay: biochemical; conditions: Binding to KRas (IC50 nM) G12D, TR-FRET displacement, KRas G12D
observable: IC50

CCc1c(F)ccc2cc(O)cc(N3CCc4c(nc(OC[C@@]56CCCN5C[C@H](F)C6)nc4N4CCCn5nc(C(=O)N(C6CC6)C6CC6)cc5C4)C3)c12 [Example 637] ... < 2 nM
CCc1c(F)ccc2cc(O)cc(N3CCc4c(nc(OC[C@@]56CCCN5C[C@H](F)C6)nc4N4CCCn5nc(C(=O)N(CC)CC)cc5C4)C3)c12 [Example 390] ... < 2 nM

From here, focus on the item given below.
Fill in reported IC50 for this entry: CCNC(=O)c1nn2c(c1Cl)CN(c1nc(OC[C@@]34CCCN3C[C@H](F)C4)nc3c1CCN(c1cc(O)cc4ccc(F)c(CC)c14)C3)CCC2 [Example 367] < 2 nM

###

target: KRas G12A (Homo sapiens, UniProt P01116, G12A); format: binding; conditions: TR-FRET displacement, read-out: Binding to KRas (IC50 nM) G12A
Sequence (P01116 1-169 isoform P01116-2 G12A): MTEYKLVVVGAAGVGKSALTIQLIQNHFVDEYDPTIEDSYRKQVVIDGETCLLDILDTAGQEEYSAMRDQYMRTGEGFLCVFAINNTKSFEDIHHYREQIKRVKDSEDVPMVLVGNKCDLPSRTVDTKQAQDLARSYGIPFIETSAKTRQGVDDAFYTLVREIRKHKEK
observable: IC50 (nM)
Express the result in nM but write the number alone.

Below, each entry is followed by its recorded IC50 result.
CCc1cccc2cccc(N3CCc4c(nc(OCC56CCCN5CCC6)nc4N4CCC(O)CC(S(C)(=O)=O)C4)C3)c12 (single isomer, unassigned) ... 55
CCc1cccc2cccc(N3CCc4c(nc(OCC5(CN(C)C)CC5)nc4N4CCC(F)C(OC)C4)C3)c12 (stereo not drawn) ... 1200
CCc1cccc2cccc(N3CCc4c(nc(OCC5(CN(C)C)CC5)nc4NC4CCCc5[nH]ncc54)C3)c12 (stereo not drawn) ... 5740

Query compound follows.
Annotate the compound Oc1cc(Cl)c(C2CC2)c(N2CCc3c(nc(OCC45CCCN4CCC5)nc3N3CCC[C@]4(C3)C[C@@H](O)C4)C2)c1 with its measured IC50. 19

###

tested on: H460 cells; assay: Inhibition of KRas-mediated phosphorylation of ERK (Cisbio HTRF pERK), H460 cells; format: cell-based; conditions: Homo sapiens, NCI-H460, single point at 100 nM, 3 hrs compound incubation
The compounds listed here are annotated with their inhibition at 0.1 µM.
Give a bare numeral; the unit % is implied.

CCc1c(F)ccc2cc(O)cc(N3CCc4c(nc(OC[C@@]56CCCN5C[C@H](F)C6)nc4N4CCCn5nc(CNC(=O)N(C)C)cc5C4)C3)c12 ... 8
CCc1c(F)ccc2cc(O)cc(N3CCc4c(nc(OC[C@@]56CCCN5C[C@H](F)C6)nc4N4CCCn5nc(NC(C)=O)cc5C4)C3)c12 ... 28
CCc1c(F)ccc2cc(O)cc(N3CCc4c(nc(OC[C@@]56CCCN5C[C@H](F)C6)nc4N4CCCn5nc(C(=O)N6CCC7CC76)cc5C4)C3)c12 (stereo partly shown) ... 88
CCc1c(F)ccc2cc(O)cc(N3CCc4c(nc(OC[C@@]56CCCN5C[C@H](F)C6)nc4N4CCCCC(CC(=O)N(C)C)C4)C3)c12 (stereo partly shown) ... -9
CCc1c(F)ccc2cc(O)cc(N3CCc4c(nc(OC[C@@]56CCCN5C[C@H](F)C6)nc4N4CCCc5nc[nH]c5C4)C3)c12 ... 12
CCc1c(F)ccc2cc(O)cc(N3CCc4c(nc(OC[C@@]56CCCN5C[C@H](F)C6)nc4N4CCCn5nc(C(=O)N(C)C)c(COC)c5C4)C3)c12 ... 89
CCc1c(F)ccc2cc(O)cc(N3CCc4c(nc(OC[C@@]56CCCN5C[C@H](F)C6)nc4N4CCCC(O)(C(N)=O)C4)C3)c12 (stereo partly shown) ... 31
CCc1c(F)ccc2cc(O)cc(N3CCc4c(nc(OC[C@@]56CCCN5C[C@H](F)C6)nc4N4CCCn5nc(N)c(Cl)c5C4)C3)c12 ... 90

Please list inhibition at 0.1 µM recorded for the compound CC1(O)COCCN(c2nc(OCC34CCCN3CCC4)nc3c2CCN(c2cc(O)cc(Cl)c2C2CC2)C3)C1 (stereo not shown) -4

Please look at this compound and report its inhibition at 0.1 µM: CCc1c(F)ccc2cc(O)cc(N3CCc4c(nc(OC[C@@]56CCCN5C[C@H](F)C6)nc4N4CCCn5nc(C(=O)N6[C@@H]7CNC[C@H]6C7)cc5C4)C3)c12 6
